FYI, the data here is from PubChem BioAssay (Tox21).

# method: A CellTox Green Cytotoxicity Assay to monitor cytotoxicity in HEK293 cells - 40 hour (AID 1224871); note: nearly all actives have a fitted effect of over 45% in size
# experimental.parameters: CellTox Green fluorescence; series mostly up to 76.8 µM
Inconclusive results are not listed. Calls of active or inactive are those of the source. Calls come from the whole dose curve; as a rule, active = well fitted activation curve with a large enough effect in the repeat runs; inconclusive = weak or mixed curves; inactive = flat fitted curve, though single readings scatter.
Outcomes you can answer with include only these: true = active, false = inactive

Example entries begin here.
Q: What classification did `Oc1ccc(C(=C(Cl)Cl)c2ccc(O)cc2)cc1` end up with in this test?
Ans: false

Q: What classification did `CC(=O)[O-].CC(=O)[O-].[Hg+2]` end up with in this test?
Ans: true

Others:
Q: What classification did N#CCCC(Br)(C#N)CBr (stereo not given) end up with in this test?
Ans: true

Q: What classification did `C=CC(=O)N(C)C` end up with in this test?
Ans: false

Q: What classification did `CCOP(=S)(OCC)SCS(=O)(=O)CC` end up with in this test?
Ans: false

Q: What classification did `Cn1[nH]nnc1=S` end up with in this test?
Ans: false

Q: What classification did `Nc1ccc(Cc2ccc(N)c(Cl)c2)cc1Cl` end up with in this test?
Ans: false

Q: What classification did `Cc1ccc(C(=O)Cl)cc1` end up with in this test?
Ans: false

Q: What classification did `BrC(Br)Br` end up with in this test?
Ans: false

Q: What classification did `C=CC(=O)OCCCCOC(=O)C=C` end up with in this test?
Ans: true

Q: What classification did CCCCCCCCCCCCCN1CC(C)OC(C)C1 (stereo not given) end up with in this test?
Ans: false

Q: What classification did `O=c1[nH]c2ccccc2n1CCCN1CCC(n2c(=O)[nH]c3cc(Cl)ccc32)CC1` end up with in this test?
Ans: false

Q: What classification did `O=[N+]([O-])c1ccc(Oc2ccc(C(F)(F)F)cc2[N+](=O)[O-])cc1` end up with in this test?
Ans: false

Q: What classification did `Cc1c(Cl)c(=O)oc2cc(OP(=O)(OCCCl)OCCCl)ccc12` end up with in this test?
Ans: false

Q: What classification did `CCOP(=S)(OCC)SCS(=O)(=O)C(C)(C)C` end up with in this test?
Ans: false

Q: What classification did `Nc1ccccc1C(=O)Oc1ccc2ccccc2c1` end up with in this test?
Ans: false

Q: What classification did `CCC[CH2][Sn]([CH2]CCC)([CH2]CCC)[O]C(=O)c1ccccc1` end up with in this test?
Ans: true

Q: What classification did COc1cc(N)c(Cl)cc1C(=O)NC1CN2CCC1CC2 (stereo not given) end up with in this test?
Ans: false

Q: What classification did CC(C)CC(C)N (stereo not given) end up with in this test?
Ans: false

---

# tested.on: Androgen receptor (Homo sapiens) (UniProt P10275)
# Sequence (P10275 whole entry, looked up): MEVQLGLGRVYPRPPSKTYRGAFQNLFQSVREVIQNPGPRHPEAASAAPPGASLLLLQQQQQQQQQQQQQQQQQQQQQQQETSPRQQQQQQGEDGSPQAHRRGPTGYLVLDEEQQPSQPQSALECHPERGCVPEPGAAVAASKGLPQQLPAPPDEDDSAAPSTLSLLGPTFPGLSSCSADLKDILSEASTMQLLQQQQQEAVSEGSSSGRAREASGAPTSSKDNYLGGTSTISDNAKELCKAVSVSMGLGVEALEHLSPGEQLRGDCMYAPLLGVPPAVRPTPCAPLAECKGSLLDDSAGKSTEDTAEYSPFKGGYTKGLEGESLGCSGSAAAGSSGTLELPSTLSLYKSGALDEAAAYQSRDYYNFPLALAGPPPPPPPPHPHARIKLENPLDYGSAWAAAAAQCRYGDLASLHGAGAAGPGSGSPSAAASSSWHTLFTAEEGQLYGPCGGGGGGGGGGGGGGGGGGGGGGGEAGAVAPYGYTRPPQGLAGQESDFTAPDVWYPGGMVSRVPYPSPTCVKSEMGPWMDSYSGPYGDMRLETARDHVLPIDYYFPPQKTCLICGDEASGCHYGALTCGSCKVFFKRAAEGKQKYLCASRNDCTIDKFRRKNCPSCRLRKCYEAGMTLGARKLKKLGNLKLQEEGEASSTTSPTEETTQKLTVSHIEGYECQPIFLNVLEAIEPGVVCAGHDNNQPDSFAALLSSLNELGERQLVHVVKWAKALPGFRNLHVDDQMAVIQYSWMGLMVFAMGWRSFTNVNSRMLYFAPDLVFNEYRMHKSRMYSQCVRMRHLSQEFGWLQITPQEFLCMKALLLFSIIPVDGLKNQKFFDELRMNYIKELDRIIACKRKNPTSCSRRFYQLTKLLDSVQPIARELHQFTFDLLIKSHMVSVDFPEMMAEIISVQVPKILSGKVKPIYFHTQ
# method: qHTS assay to identify small molecule antagonists of the androgen receptor (AR) signaling pathway using the MDA cell line in the presence of 0.5 nM R1881 (AID 1259243); note: nearly all actives have a fitted effect of over 50% in size
# experimental.parameters: MDA-kb2 MMTV-luciferase, R1881 0.5 nM, 16 h; series mostly up to 92.4 µM
Results filed as inconclusive are left out. Calls of active or inactive are those of the source. The call rests on the fitted dose curve; in most records, active means well fitted inhibition curve with a large enough effect in the repeat runs; inconclusive means weak or mixed curves; inactive means no such curve, though single readings can be large or run the other way.
Outcomes you can answer with include only these: YES (active), NO (inactive)

Q: What classification did C[CH2][Hg][N]1C(=O)C2C(C1=O)C1(Cl)C(Cl)=C(Cl)C2(Cl)C1(Cl)Cl (stereo unspecified) end up with in this test?
Ans: YES

Q: What classification did `CC(=O)c1ccc(-c2ccccc2)cc1` end up with in this test?
Ans: YES

Q: What classification did `CC(=O)O[C@H]1CC[C@@]2(C)C(=CC[C@@H]3[C@@H]2CC[C@]2(C)C(=O)CC[C@@H]32)C1` end up with in this test?
Ans: YES

Q: What classification did `Oc1c(Cl)c(Cl)cc(Cl)c1Cl` end up with in this test?
Ans: YES

Q: What classification did `NC(=O)CCl` end up with in this test?
Ans: NO

Now consider a different molecule.
Q: What classification did `N#Cc1ccc(O)cc1` end up with in this test?
Ans: NO

---

# method: qHTS assay to identify small molecule antagonists of the estrogen related receptor (ERR) signaling pathway from Tox21 library - cell viability counter screen (AID 1224834); note: nearly all actives have a fitted effect of over 30% in size
# experimental.parameters: ERR reporter cells viability, CellTiter-Fluor, 17.5 h; series mostly up to 92.4 µM
Results filed as inconclusive are left out. Activity calls are given as the source filed them. The call rests on the fitted dose curve; in most records, active means well fitted cell-killing curve with a large enough effect in the repeat runs; inconclusive means weak or mixed curves; inactive means flat fitted curve, though single readings scatter.
Outcomes you can answer with include only these: active, inactive

Example entries begin here.
Q: What classification did CNC(C)Cc1ccc2c(c1)OCO2 (configuration not stated) end up with in this test?
Ans: inactive

Q: What classification did `COc1cccc(C(=O)CCN[C@@H](C)[C@H](O)c2ccccc2)c1` end up with in this test?
Ans: inactive

Q: What classification did `CCC[CH2][Sn]([CH2]CCC)([CH2]CCC)[O]C(=O)c1ccccc1` end up with in this test?
Ans: active

Q: What classification did CC(Cc1ccc(C(C)(C)C)cc1)CN1C[C@@H](C)O[C@@H](C)C1 (some centres not stated) end up with in this test?
Ans: inactive

Q: What classification did `CCC(C)(C)C(=O)OC1=C(c2ccc(Cl)cc2Cl)C(=O)OC12CCCCC2` end up with in this test?
Ans: inactive

Q: What classification did `O=C(O)COc1nc(Cl)c(Cl)cc1Cl` end up with in this test?
Ans: inactive

Q: What classification did `Nc1ccccc1C(=O)Oc1ccc2ccccc2c1` end up with in this test?
Ans: inactive

Q: What classification did `Oc1ccc(C(c2ccc(O)cc2)(C(F)(F)F)C(F)(F)F)cc1` end up with in this test?
Ans: active

Others:
Q: What classification did `CCN(CC)C(=S)[S-].CCN(CC)C(=S)[S-].[Zn+2]` end up with in this test?
Ans: active

Q: What classification did `CC(=O)C(Cl)(Cl)Cl` end up with in this test?
Ans: active

Q: What classification did `CC(=O)c1ccc(-c2ccccc2)cc1` end up with in this test?
Ans: inactive

Q: What classification did `CCCCCCCCCCCCCCCC[n+]1ccccc1` end up with in this test?
Ans: active

Q: What classification did `O=C(CCCN1CCC2(CC1)C(=O)NCN2c1ccccc1)c1ccc(F)cc1` end up with in this test?
Ans: inactive

Q: What classification did c1ccc2c(c1)OCC(C1=NCCN1)O2 (configuration not stated) end up with in this test?
Ans: active

---

# method: qHTS assay to identify small molecule antagonists of the estrogen receptor alpha (ER-alpha) signaling pathway using the BG1 cell line in the presence of 0.1 nM 17-beta-estradiol - cell viability counter screen (AID 1259241); note: nearly all actives have a fitted effect of over 40% in size
# experimental.parameters: VM7Luc4E2 (BG1) viability, CellTiter-Fluor protease, 22 h, 0.1 nM estradiol agonist added; series mostly up to 92.4 µM
Inconclusive results are not listed. Calls of active or inactive are those of the source. Calls come from the whole dose curve; as a rule, active = well fitted cell-killing curve with a large enough effect in the repeat runs; inconclusive = weak or mixed curves, or effect the other way; inactive = flat fitted curve, though single readings scatter.
Outcomes you can answer with include only these: 1 = active, 0 = inactive

Example entries begin here.
Q: What classification did `CC(=O)C(Cl)(Cl)Cl` end up with in this test?
Ans: 1

Q: What classification did C[C@H]1CC[C@@H]2[C@@H](C)[C@H]3[C@H](C[C@H]4[C@@H]5CC=C6CC(O[C@@H]7O[C@H](CO)[C@H](O)[C@H](O[C@@H]8O[C@H](CO)[C@@H](O)[C@H](O)[C@H]8O)[C@H]7O[C@H]7O[C@@H](C)[C@H](O)[C@@H](O)[C@H]7O)CC[C@]6(C)[C@H]5CC[C@]34C)N2C1 (some centres not stated) end up with in this test?
Ans: 0

Q: What classification did C1CCC2CCCCC2C1 (configuration not stated) end up with in this test?
Ans: 0

Q: What classification did `OC(c1ccc(Cl)cc1)(c1ccc(Cl)cc1)C(Cl)(Cl)Cl` end up with in this test?
Ans: 0

Q: What classification did `CC(C)CC(C)(c1ccc(O)cc1)c1ccc(O)cc1` end up with in this test?
Ans: 0

Others:
Q: What classification did CC1CCC(C(C)C)C(OC(=O)c2ccccc2N)C1 (configuration not stated) end up with in this test?
Ans: 0

Q: What classification did `CCc1ccccc1C` end up with in this test?
Ans: 0

---

# method: qHTS assay to identify small molecule agonists of the androgen receptor (AR) signaling pathway in the presence of an antagonist - cell viability counter screen (AID 1259379); note: nearly all actives have a fitted effect of over 25% in size
# experimental.parameters: MDA-kb2 viability, CellTiter-Fluor, 16 h; series mostly up to 92.4 µM
Records with an inconclusive call do not appear. Active and inactive are the calls of the source. The call rests on the fitted dose curve; in most records, active means well fitted cell-killing curve with a large enough effect in the repeat runs; inconclusive means weak or mixed curves, or effect the other way; inactive means flat fitted curve, though single readings scatter.
Outcomes you can answer with include only these: 1 for active, 0 for inactive

Q: What classification did `COc1cc(C=O)cc2c1[C@H](COC(N)=O)[C@]1(OC(C)=O)ON2C[C@H]2[C@@H]1N2C(C)=O` end up with in this test?
Ans: 1

Q: What classification did COC12CC[C@@]3(C[C@@H]1C(C)(O)C(C)(C)C)[C@H]1Cc4ccc(O)c5c4[C@@]3(CCN1CC1CC1)[C@H]2O5 (stereo not given in full) end up with in this test?
Ans: 1

Others:
Q: What classification did `CN(C)CCc1c[nH]c2ccc(O)cc12` end up with in this test?
Ans: 0

Q: What classification did `CC1(C)CN=C(NN=C(/C=C/c2ccc(C(F)(F)F)cc2)/C=C/c2ccc(C(F)(F)F)cc2)NC1` end up with in this test?
Ans: 1

Q: What classification did `C=CC(=O)OCC(COC(=O)C=C)(COC(=O)C=C)COC(=O)C=C` end up with in this test?
Ans: 1
